# TARGET_OR_SYSTEM: Human M4 (Homo sapiens)
# Construct: expressed in transfected cells
# Sequence (P08173 whole entry): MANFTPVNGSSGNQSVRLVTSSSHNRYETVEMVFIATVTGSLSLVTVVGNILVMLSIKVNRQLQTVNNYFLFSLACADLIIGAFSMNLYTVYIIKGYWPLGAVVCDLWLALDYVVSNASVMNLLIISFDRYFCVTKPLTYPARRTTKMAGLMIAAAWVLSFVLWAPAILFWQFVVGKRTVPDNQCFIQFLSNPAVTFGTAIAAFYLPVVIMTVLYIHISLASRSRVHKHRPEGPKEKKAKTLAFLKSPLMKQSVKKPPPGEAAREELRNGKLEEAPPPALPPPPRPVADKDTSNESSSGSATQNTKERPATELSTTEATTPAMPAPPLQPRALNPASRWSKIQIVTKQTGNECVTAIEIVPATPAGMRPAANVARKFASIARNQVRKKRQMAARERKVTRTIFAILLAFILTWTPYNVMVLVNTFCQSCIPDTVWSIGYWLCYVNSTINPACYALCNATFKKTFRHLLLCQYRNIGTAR
# ASSAY_TEXT: mAChR M4 cell-based functional assay (calcium flux, potentiation of EC20 acetylcholine response), hM4-Gqi5 CHO-K1 cells
# EXPERIMENTAL_CONTEXT: CHO-K1; % ACh maximum at 30 μM; human M4; read-out: Emax
VALUE_KIND: Emax at 30 µM (%)

Cc1c(N2CCc3ncc(N4CCC5OCCCC5C4)cc3C2)nn2cnnc2c1C (centres unmarked) [Compound 25] = 65
CCn1cc(-c2cnc3c(c2)CN(c2nn4cnnc4c(C)c2C)CC3)cn1 [Compound 100] = 101
Cc1cc2nncn2nc1N1CCc2ncc(-c3ccnn3C)cc2C1 [Compound 138] = 105
Cc1c(N2CCc3ncc(-c4ccns4)cc3C2)nn2cnnc2c1C [Compound 19] = 106
Cc1c(N2CCc3ncc(C(=O)N4CCCC4)cc3C2)nn2cnnc2c1C [Compound 56] = 91

a = Cc1c(N2CCc3ncc(Nc4cccc(C(F)(F)F)c4F)cc3C2)nn2cnnc2c1C [Compound 66]
b = Cc1cc2nccn2nc1N1CCc2ncc(-c3c(C)noc3C)cc2C1 [Compound 110]
Query: Please choose the item with the lower Emax at 30 µM value from this pair: a and b // caller expects the label of the chosen entry
Response: b
(b: 62%, a: 95%)

###

# TARGET_OR_SYSTEM: Human M4 (Homo sapiens)
# Construct: expressed in transfected cells
# ASSAY_TEXT: mAChR M4 cell-based functional assay (calcium flux, potentiation of EC20 acetylcholine response), hM4-Gqi5 CHO-K1 cells
# EXPERIMENTAL_CONTEXT: hM4-Gqi5 CHO-K1 cells, calcium flux, PAM of EC20 acetylcholine; read-out: Human M4 EC50
VALUE_KIND: EC50 (nM)

The cases that follow already have their EC50 on record.
Cc1c(N2CCc3ncc(Nc4ccc(Cl)cc4F)cc3C2)nn2cnnc2c1C = 386
Cc1c(N2CCc3ncc(-c4cnn(C5CCNCC5)c4)cc3C2)nn2cnnc2c1C = 296

I = Cc1c(N2CCc3ncc(Oc4ccc5c(c4)OCCO5)cc3C2)nn2cnnc2c1C
II = Cc1cc2nccn2nc1N1CCc2ncc(-c3cnn(C4CCNCC4)c3)cc2C1
Query: Please choose the item with the lower EC50 value from this pair: I and II // caller expects the label of the chosen entry
Response: I
(I: 295 nM, II: 568 nM)

###

# TARGET_OR_SYSTEM: Human M4 (Homo sapiens)
# Construct: expressed in transfected cells
# ASSAY_TEXT: mAChR M4 cell-based functional assay (calcium flux, potentiation of EC20 acetylcholine response), hM4-Gqi5 CHO-K1 cells
# EXPERIMENTAL_CONTEXT: CHO-K1; Table 4; Human M4; % ACh maximum at 30 μM; read-out: Emax (% ACh maximum at 30 μM)
VALUE_KIND: Emax at 30 µM (%)

[2H]C1([2H])Cc2ncc(Nc3ccncc3F)cc2C([2H])([2H])N1c1nn2cnnc2c(C)c1C = 96
[2H]C1([2H])Cc2ncc(Nc3ccncc3C)cc2C([2H])([2H])N1c1nn2cnnc2c(C)c1C = 74
CCOC(=O)c1c(C)nc2cc(C)c(N3CCc4ncc(N5CCCn6nccc65)cc4C3)nn12 = 72
[2H]C1([2H])Cc2ncc(Nc3cccnc3C)cc2C([2H])([2H])N1c1nn2cnnc2cc1C = 87
Cc1cc2nncn2nc1N1CCc2ncc(CC(F)(F)F)cc2C1 = 74
[2H]C1([2H])Cc2ncc(Nc3ccncc3C)cc2C([2H])([2H])N1c1nn2cnnc2cc1C = 77
Cc1c(N2CCc3ncc(C(F)(F)F)cc3C2)nn2cnnc2c1C(F)(F)F = 77
Cc1c(C2CC2)c(N2CCc3ncc(C(F)(F)F)cc3C2)nn2cnnc12 = 70
[2H]C1([2H])Cc2ncc(Nc3ccncc3F)cc2C([2H])([2H])N1c1nn2cnnc2cc1C = 94

###

# TARGET_OR_SYSTEM: Human M4 (Homo sapiens)
# Construct: expressed in transfected cells
# ASSAY_TEXT: mAChR M4 cell-based functional assay (calcium flux, potentiation of EC20 acetylcholine response), hM4-Gqi5 CHO-K1 cells
# EXPERIMENTAL_CONTEXT: Table 4; potentiation of EC20 acetylcholine response, calcium flux, CHO-K1 cells; read-out: Human M4 EC50
# Protocol: […] Calcium flux was measured using the Functional Drug Screening System (FDSS) 6000 or 7000 (Hamamatsu Corporation, Tokyo, Japan) as an increase in the fluorescent static ratio. […] Agonist activity was analyzed as a concentration-dependent increase in calcium mobilization upon compound addition. Positive allosteric modulator activity was analyzed as a concentration-dependent increase in the EC20 acetylcholine response. […]
VALUE_KIND: EC50 (nM)

Cc1cc2n(n1)CCCN2c1cnc2c(c1)CN(c1nn3c(C(F)(F)F)nnc3c(C)c1C)CC2 = 121
Cc1cc2cnc(C)n2nc1N1CCc2ncc(C(F)(F)F)cc2C1 = 521
[2H]C1([2H])Cc2ncc(Nc3ccncc3C)cc2C([2H])([2H])N1c1nn2cnnc2c(C)c1C = 168
Cc1c(N2CCc3ncc(N4C[C@@H](C)O[C@@H](C)C4)cc3C2)nn2c(C(F)(F)F)nnc2c1C = 2150
Cc1c(N2CCc3ncc(N4CCO[C@H](c5ccccc5)C4)cc3C2)nn2c(C(F)(F)F)nnc2c1C = 3140

a = Cc1cc2nnc(C(F)(F)F)n2nc1N1CCc2ncc(C(F)(F)F)cc2C1
b = Cc1cc2cncn2nc1N1CCc2ncc(-c3cn(C)nc3C)cc2C1
Query: EC50 comparison. Which is larger, a or b ? // caller expects the label of the chosen entry
Response: a
(a: 794 nM, b: 492 nM)

A = Cc1c(N2CCc3ncc(Nc4ccncc4F)cc3C2)nn2cnnc2c1C
B = CCOC(=O)c1c(C)nc2cc(C)c(N3CCc4ncc(N5CCCn6nccc65)cc4C3)nn12
C = COC1CCN(c2cnc3c(c2)CN(c2nn4c(C(F)(F)F)nnc4c(C)c2C)CC3)CC1
D = Cc1cc2nncn2nc1N1CCc2ncc(CC(F)(F)F)cc2C1
E = [2H]C1([2H])Cc2ncc(Nc3ccncc3C)cc2C([2H])([2H])N1c1nn2cnnc2cc1C
Query: Order the items by recorded EC50; the first position goes to the largest value. A ranking is expressed here by listing the labels in the requested order.
Response: C, E, B, D, A
(C: 1400 nM, E: 686 nM, B: 359 nM, D: 234 nM, A: 2 nM)

I = Cc1c(N2CCc3ncc(C(F)(F)F)cc3C2)nn2c(C(F)(F)F)nnc2c1C
II = FC(F)(F)c1cnc2c(c1)CN(c1nn3cnnc3c3c1CCCC3)CC2
Query: Please choose the item with the lower EC50 value from this pair: I and II // caller expects the label of the chosen entry
Response: I
(I: 270 nM, II: 1460 nM)

###

# TARGET_OR_SYSTEM: Human M4 (Homo sapiens)
# Construct: expressed in transfected cells
# ASSAY_TEXT: mAChR M4 cell-based functional assay (calcium flux, potentiation of EC20 acetylcholine response), hM4-Gqi5 CHO-K1 cells
# EXPERIMENTAL_CONTEXT: hM4-Gqi5 CHO-K1 cells, calcium flux, PAM of EC20 acetylcholine; read-out: Human M4 EC50
VALUE_KIND: EC50 (nM)

The cases that follow already have their EC50 on record.
Cc1cc2nccn2nc1N1CCc2ncc(-c3cnn(C)c3)cc2C1 = 583
Cc1c(N2CCc3ncc(-c4ccnn4C)cc3C2)nn2cnnc2c1C = 295
Cc1c(N2CCc3ncc(C(F)(F)F)cc3C2)nn2cnnc2c1C = 151

1 = Cc1c(N2CCc3ncc(Nc4cc(F)cc(F)c4F)cc3C2)nn2cnnc2c1C
2 = Cc1nn(C)cc1-c1cnc2c(c1)CN(c1nn3c(C(F)(F)F)nnc3c(C)c1C)CC2
3 = Cc1c(N2CCc3ncc(-c4cnn(CC5CC5)c4)cc3C2)nn2c(C)nnc2c1C
4 = Cc1c(N2CCc3ncc(NCC4CCCO4)cc3C2)nn2cnnc2c1C (centres unmarked)
Query: Exam item: list the entries in increasing order of EC50. A ranking is expressed here by listing the labels in the requested order.
Response: 1, 2, 3, 4

A = COc1ccc(-c2cnc3c(c2)CN(c2nn4cnnc4c(C)c2C)CC3)cn1
B = Cc1c(N2CCc3ncc(Nc4ccccc4C#N)cc3C2)nn2cnnc2c1C
Query: EC50 comparison. Which is larger, A or B ? // caller expects the label of the chosen entry
Response: B
(B: 381 nM, A: 182 nM)

1 = Cc1cc2nccn2nc1N1CCc2ncc(-c3cnn(C4CC4)c3)cc2C1
2 = Cc1cc2nccn2nc1N1CCc2ncc(-c3cncs3)cc2C1
Query: Please choose the item with the lower EC50 value from this pair: 1 and 2 // caller expects the label of the chosen entry
Response: 2
(2: 113 nM, 1: 304 nM)
